test system: acyclovir-resistant reference strain DM21; assay: Antiviral susceptibility testing by ELISA on HEp-2 cells, strain DM21; assay type: cell-based, HSV 1; settings: HEp-2 cells, ELISA; median of at least three assays; drugs diluted in μM; read-out: Susceptibility of strain DM21 (concentration causing 50% inhibition of viral replication, IC50), median
Entries annotated with measured IC50

{"COMPOUND": "Nc1nc2c(ncn2COCCO)c(=O)[nH]1", "UOM": "µM", "COMPARISON SIGN": ">", "IC50": 500}
{"COMPOUND": "O=C(O)P(=O)(O)O", "UOM": "µM", "COMPARISON SIGN": "=", "IC50": 148}
{"COMPOUND": "CC(C=NNC(=N)N)=NNC(=N)N [MGBG, methylglyoxal bis(guanylhydrazone)]", "UOM": "µM", "COMPARISON SIGN": "=", "IC50": 75}

* * *

test system: foscarnet-resistant reference strain TP 2.5; assay: Antiviral susceptibility testing by ELISA on HEp-2 cells, strain TP 2.5; type: cell-based, HSV 1; details: median of at least three assays, drugs diluted in μM, read-out: Susceptibility of strain TP2.5 (concentration causing 50% inhibition of viral replication, IC50), median

{"COMPOUND": "O=C(O)P(=O)(O)O", "IC50": "> 1000 µM"}
{"COMPOUND": "CC(C=NNC(=N)N)=NNC(=N)N [MGBG, methylglyoxal bis(guanylhydrazone)]", "IC50": "82 µM"}
{"COMPOUND": "Nc1nc2c(ncn2COCCO)c(=O)[nH]1", "IC50": "215 µM"}
